Values were extracted from patent US20090311237A1.

# METHOD SUMMARY: Phase 1 Stage 1 clinical pharmacokinetics of SC ZA co-administered with rHuPH20
# Assay type: in vivo, human
# CONDITION DETAILS: human, serum, sc, ZA 0.25 mg; SC […] infusion, 100 mL, 3 mL/min, 24000 Units rHuPH20; extrapolated to ∞; individual subjects; read-out: SC MRT
ENDPOINT LABEL: MRT (h)
Return type: number; implicit unit h.

# molecule O=P(O)(O)C(O)(Cn1ccnc1)P(=O)(O)O ; its MRT = 3.37

====

# METHOD SUMMARY: Phase 1 Stage 1 clinical pharmacokinetics of SC ZA co-administered with rHuPH20
# Type: in vivo, human
# CONDITION DETAILS: human, serum, sc, 2 mg, ZA 2 mg; SC […] infusion, 100 mL, 3 mL/min, 24000 Units rHuPH20; extrapolated to ∞; individual subjects; read-out: SC MRT
ENDPOINT LABEL: MRT (h)
Return type: number; implicit unit h.

# molecule O=P(O)(O)C(O)(Cn1ccnc1)P(=O)(O)O ; its MRT = 5.72

====

# METHOD SUMMARY: Pharmacokinetics of ZA in pig serum after IV or SC infusion with or without rHuPH20 (LC-MS-MS, non-compartmental analysis)
# Type: in vivo
# CONDITION DETAILS: female, Yorkshire, pig, serum, subcutaneous, pig 56, Study Group 3, SC, ZA […], rHuPH20 10000 U/mL, 25 mL over 4 min, time 0.333 h; read-out: Zoledronic Acid Serum Concentration
ENDPOINT LABEL: concentration at 0.333 h (ng/mL)
Return type: number; implicit unit ng/mL.

# compound O=P(O)(O)C(O)(Cn1ccnc1)P(=O)(O)O ; its concentration at 0.333 h = 235

====

# METHOD SUMMARY: Phase 1 Stage 1 clinical pharmacokinetics of SC ZA co-administered with rHuPH20
# Assay type: in vivo, human
# CONDITION DETAILS: human, serum, sc, serum; ZA 1 mg SC infusion + 24000 Units rHuPH20; 12 h post infusion; n=3; read-out: Mean Conc.
ENDPOINT LABEL: concentration at 12 h
Remember to quote the unit after the number.

# compound O=P(O)(O)C(O)(Cn1ccnc1)P(=O)(O)O ; its concentration at 12 h = 1.09 ng/mL

====

# METHOD SUMMARY: Phase 1 Stage 1 clinical pharmacokinetics of SC ZA co-administered with rHuPH20
# Assay type: in vivo, human
# CONDITION DETAILS: human, serum, sc, 0.0776 mg/kg, AUC (0-12 h), Subj 70; ZA 0.0776 mg/kg SC; inf […]; PH20 2928 U
ENDPOINT LABEL: AUC(0-t) (ng·h/mL)
Return type: number; implicit unit ng·h/mL.

# molecule O=P(O)(O)C(O)(Cn1ccnc1)P(=O)(O)O ; its AUC(0-t) = 573

====

# METHOD SUMMARY: Phase 1 Stage 1 clinical pharmacokinetics of SC ZA co-administered with rHuPH20
# Assay type: in vivo, human
# CONDITION DETAILS: human, serum, sc, ZA 0.25 mg SC + 24000 U rHuPH20; mean, n=3
ENDPOINT LABEL: Cmax (ng/mL)
Return type: number; implicit unit ng/mL.

# compound O=P(O)(O)C(O)(Cn1ccnc1)P(=O)(O)O ; its Cmax = 6.75
